Target: human CLDN18.2-mRFP E56Q (human)
Sequence (chain, as listed by the source E56Q E56Q limits assumed): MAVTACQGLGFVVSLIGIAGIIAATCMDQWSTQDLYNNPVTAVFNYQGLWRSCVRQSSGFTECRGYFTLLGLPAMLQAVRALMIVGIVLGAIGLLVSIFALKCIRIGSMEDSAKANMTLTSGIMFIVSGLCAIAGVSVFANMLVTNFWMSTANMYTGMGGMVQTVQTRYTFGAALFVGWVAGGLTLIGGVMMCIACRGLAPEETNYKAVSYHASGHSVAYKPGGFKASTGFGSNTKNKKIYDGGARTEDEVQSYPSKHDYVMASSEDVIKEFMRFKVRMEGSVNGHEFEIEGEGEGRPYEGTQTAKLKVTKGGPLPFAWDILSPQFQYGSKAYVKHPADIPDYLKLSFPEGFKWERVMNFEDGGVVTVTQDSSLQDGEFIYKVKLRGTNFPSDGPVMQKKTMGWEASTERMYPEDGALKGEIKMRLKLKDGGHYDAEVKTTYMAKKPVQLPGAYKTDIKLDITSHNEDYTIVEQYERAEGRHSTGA
Experiment: FACS, transfected HEK293, 10 µg/ml antibody;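 note: antibody binding read by flow cytometry with a FITC-labelled anti-human IgG secondary, gated on RFP-positive cells, each mutant signal expressed against wild-type CLDN18.2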
PROPERTY_MEASURED: binding percentage vs wild-type CLDN18.2 (%)
Write it as a number; the unit % goes unstated.

Consider the worked cases shown below.
# BINDER, UNIT_SYMBOL, binding percentage vs wild-type CLDN18.2
data = [
    ("11F12-C (antibody, human IgG1, V domains shown, also called chimeric 11F12) VH: EFQLQQSGPELEKPGASVRISCKTSGYSFTGYNMNWVKQSNGESLEWIGYIDPYYGGTRYNQKFKGKATLTVDKSSSTAYMQLKSLTSEDSAVYYCARSYYGNAFDYWGQGTTLTVSS VL: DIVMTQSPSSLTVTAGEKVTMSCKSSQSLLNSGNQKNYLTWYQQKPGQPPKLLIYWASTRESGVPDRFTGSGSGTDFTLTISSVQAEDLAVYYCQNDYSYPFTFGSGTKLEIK", "%", 0.27),
    ("59A9-C (antibody, human IgG1, V domains shown, also called chimeric 59A9) VH: QITQKESGPGILQPSQTLSLTCSLSGFSLSTYFIGVGWIRQPSGKGLEWLAHIWWNDNKYYNTALKSRLTISKDTSNNQVFLKIASVDTADTATYYCARMGSGAWFTYWGQGTLVTVSA VL: DIVMTQSPSSLTVTAGEKVTMSCKSSQSLLNSGNQKNYLTWYQQKPGQPPKLLIYWASTRESGVPDRFTGSGSGTDFTLTISSVQAEDLAVYYCQNDYYYPLTFGSGTKLEIK", "%", 52.7),
]

For the next question, use this binder.
Provide binding percentage vs wild-type CLDN18.2 value for the following binder: 7C12-C (antibody, human IgG1, V domains shown, also called chimeric 7C12) VH: EFQLQQSGPELEKPGASVRISCKTSGYSFTGYNMNWVKQSNGESLEWIGNIDPYYGATRYNQKFKGKATLTVDKSSSTAYMQLKSLTSEDSAVYYCARSYYGNAFDYWGQGTTLTVSS VL: DIVMTQSPSSLTVTAGEKVTMSCKSSQSLLNSGNQKNYLTWYQQKPGQPPKLLIYWASTRESGVPDRFTGSGSGTDFTLTISSVQAEDLAVYYCQNDYSFPFTFGSGTKLEIK
0.48
